Quick reference for selectivity ratio among some compounds
# Assay Overview: Therapeutic index, ratio of IC50 for mouse 3T3 cells to IC50 for mouse 4T1 cells
# Type: toxicity
# Experimental Parameters: 3T3 cells and 4T1 cells, read-out: Ratio IC50
Where a name gives a salt, the structure may show the parent alone.
Please give only the number in your answer, with no unit.

INSERT INTO results (compound, recorded_value) VALUES
  ('COc1cccc2c1C(=O)c1c(O)c3c(c(O)c1C2=O)C[C@@](O)(C(=O)CO)C[C@@H]3O[C@H]1C[C@H](N)[C@H](O)[C@H](C)O1 [DOXORUBICIN HYDROCHLORIDE]', 0.45);

Fill blank: measured selectivity ratio of the compound `C=C1C(=O)O[C@H]2[C@H]1CC/C(COC(=O)/C=C/c1c(OC)cccc1OC)=C\CC[C@@]1(C)O[C@@H]21` is ____.
36.9

====

# System: Bcap37
# Assay Overview: Antiproliferative activity against human Bcap37 cells measured after 72 hrs by MTT assay
# Format: functional, cell-based
# Experimental Parameters: Bcap37, 72 h
Observed Property: pIC50
For clarity, pIC50 is expressed as the negative log10 of concentration in mol/L.

INSERT INTO results (molecule, observed_property, recorded_value) VALUES
  ('C=C1C(=O)O[C@H]2[C@H]1CC/C(COC(=O)/C=C/c1ccccc1C(F)(F)F)=C\CC[C@@]1(C)O[C@@H]21', 'pIC50', 5.72);

Next molecule, please.
Fill blank: measured pIC50 of the molecule `C=C1C(=O)O[C@H]2[C@H]1CC/C(COC(=O)/C=C/c1cc(OC)c(OC)c(OC)c1)=C\CC[C@@]1(C)O[C@@H]21` is ____.
5.71

====

# System: Bcap37
# Assay Overview: Antiproliferative activity against human Bcap37 cells measured after 72 hrs by MTT assay
# Assay type: functional, cell-based
# Experimental Parameters: Bcap37, 72 h
pIC50: −log10 of the molar value.
Please mark y if the recorded pIC50 is equal to or greater than 6, and n if it falls below.

INSERT INTO measurements (compound, class_label) VALUES
  ('C=C1C(=O)O[C@H]2[C@H]1CC/C(COC(=O)/C=C/c1cc(OC)ccc1OC)=C\CC[C@@]1(C)O[C@@H]21', 'y');

Say whether `C=C1C(=O)O[C@H]2[C@H]1CC/C(COC(=O)/C=C/c1c(OC)cccc1OC)=C\CC[C@@]1(C)O[C@@H]21` shows pIC50 of 6 or more.
y

Say whether `C=C1C(=O)O[C@H]2[C@H]1CC/C(COC(=O)/C=C/c1ccccc1OCC)=C\CC[C@@]1(C)O[C@@H]21` shows pIC50 of 6 or more.
y

Say whether `C=C1C(=O)O[C@H]2[C@H]1CC/C(COC(=O)/C=C/c1cccc(C(F)(F)F)c1)=C\CC[C@@]1(C)O[C@@H]21` shows pIC50 of 6 or more.
n

Say whether C=C1C(=O)O[C@@H]2C3O[C@]3(C)CC/C=C(\C)CC[C@@H]12 (some centres not stated) shows pIC50 of 6 or more.
n
